# TEST_METHOD_NOTES: Determination of nitrite binding constants to met-Ngb (difference spectra titration)
# CONDITIONS: met-Ngb 10 μM, 200 mM phosphate buffer, pH 7.4, 25° C.; read-out: Kd (NO2^−)
OUTCOME_MEASURE: Kd (mM)
Give bare numbers, in mM.

Entry WT SS: recombinant wild-type human neuroglobin (SEQ ID NO: 8), as purified with the C46-C55 disulfide bond formed (protein, listed as Homo sapiens, C46-C55 disulfide) MERPEPELIRQSWRAVSRSPLEHGTVLFARLFALEPDLLPLFQYNCRQFSSPEDCLSSPEFLDHIRKVMLVIDAAVTNVEDLSSLEEYLASLGRKHRAVGVKLSSFSTVGESLLYMLEKCLGPAFTPATRAAWSQLYGAVVQAMSRGWDGE , Kd reported as 6.2
